target: Mammalian Cathepsin S (Homo sapiens); assay: Ki competitive inhibition, mammalian cathepsin S; assay type: biochemical; settings: Table 1, first line of each CAP-P2 block; read-out: Ki competitive inhibition measurements vs Mammalian Cathepsin S
pKi: −log10 of the molar value.
outcome measure: pKi

Worked cases, pKi given:
> print(dat)
                                   compound                         tested.system  outcome.measure  value.measured
1  CCCCC(NC(=O)c1ccc(N(C)C)cc1)C(=O)NC1C(=O)COC1C [CAP7-L-Nle/drawing 70]  Mammalian Cathepsin S (Homo sapiens)              pKi            5.17
2  C[C@H]1OCC(=O)[C@H]1NC(=O)[C@H](CC(C)(C)C)NC(=O)c1ccc(N(C)C)cc1 [CAP7-L-tBu-Ala/drawing 69]  Mammalian Cathepsin S (Homo sapiens)              pKi            5.57
3  CC(C)CC[C@H](NC(=O)N1CCOCC1)C(=O)N[C@@H]1C(=O)CO[C@@H]1C [CAP9-L-hLeu/drawing 69]  Mammalian Cathepsin S (Homo sapiens)              pKi            6.11
4  Cc1cc(C(=O)N[C@@H](Cc2ccc(O)cc2)C(=O)N[C@H]2C(=O)CO[C@H]2C)oc1C [CAP6-L-Tyr/drawing 70]  Mammalian Cathepsin S (Homo sapiens)              pKi            6.62

a. C[C@H]1OCC(=O)[C@H]1NC(=O)[C@H](CC(C)(C)C)NC(=O)c1ccc(O)cc1 [CAP1-L-tBu-Ala/drawing 69]
b. CC(C)C[C@H](NC(=O)c1ccc(N(C)C)cc1)C(=O)N[C@H]1C(=O)CO[C@H]1C [CAP7-L-Leu/drawing 70]
Q) // which entry has the larger pKi value, a or b ? Returns: label corresponding to the selected item.
A) a

====

Molecular target: Mammalian Cathepsin K (Homo sapiens, UniProt P43235)
Sequence (P43235 115-329): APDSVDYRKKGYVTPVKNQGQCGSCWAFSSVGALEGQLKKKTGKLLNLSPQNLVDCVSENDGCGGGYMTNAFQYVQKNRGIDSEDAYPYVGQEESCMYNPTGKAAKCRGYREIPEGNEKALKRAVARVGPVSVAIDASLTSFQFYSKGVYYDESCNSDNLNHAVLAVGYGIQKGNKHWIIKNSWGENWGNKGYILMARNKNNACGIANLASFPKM
Assay: Ki competitive inhibition, cathepsin K
Format: biochemical
Settings: Table 1, third line of each CAP-P2 block; read-out: Ki competitive inhibition measurements vs Mammalian Cathepsin K
outcome measure: Ki (µM)

> print(dat)
                                   compound  outcome.measure  value.measured
1  CC(C)CC[C@H](NC(=O)c1ccoc1)C(=O)N[C@@H]1COCC1=O [CAP8-L-hLeu/drawing 73]               Ki             8.7
2  Cc1cc(C(=O)N[C@@H](CC(C)C)C(=O)N[C@@H]2C(=O)CO[C@H]2C)oc1C [CAP6-L-Leu/drawing 71]               Ki            2.75
3  CCn1nc(C)cc1C(=O)N[C@@H](CC(C)C)C(=O)N[C@@H]1C(=O)CO[C@@H]1C [CAP10-L-Leu/drawing 69]               Ki               3
4  CCCC[C@H](NC(=O)c1ccc(O)cc1)C(=O)N[C@@H]1C(=O)CO[C@H]1C [CAP1-L-Nle/drawing 71]               Ki             8.9
5  C[C@H]1OCC(=O)[C@H]1NC(=O)[C@H](CC(C)(C)C)NC(=O)N1CCOCC1 [CAP9-L-tBu-Ala/drawing 69]               Ki             4.2

A. CC(C)(C)CC(NC(=O)c1ccoc1)C(=O)NC1COCC1=O [CAP8-L-tBu-Ala/drawing 72]
B. CC(C)C[C@H](NC(=O)c1ccc(N(C)C)cc1)C(=O)N[C@H]1C(=O)CO[C@H]1C [CAP7-L-Leu/drawing 70]
Q) Returns: the argument ( A or B ) having the larger Ki. # reply format: chosen label
A) A
(A: 0.85 µM, B: 0.17 µM)

A. C[C@H]1OCC(=O)[C@H]1NC(=O)[C@H](CC(C)(C)C)NC(=O)c1ccc(N(C)C)cc1 [CAP7-L-tBu-Ala/drawing 69]
B. CCCC[C@H](NC(=O)c1ccoc1)C(=O)N[C@@H]1C(=O)CO[C@@H]1C [CAP8-L-Nle/drawing 69]
Q) Which numeric Ki is bigger, that of A or that of B ? Lab note: record the label of whichever item you select.
A) B

I. CC1OCC(=O)C1NC(=O)C(CC(C)(C)C)NC(=O)c1ccsc1 [CAP11-L-tBu-Ala/drawing 71]
II. C[C@H]1OCC(=O)[C@H]1NC(=O)[C@H](CC(C)(C)C)NC(=O)c1cccs1 [CAP5-L-tBu-Ala/drawing 69]
III. CC(C)C[C@H](NC(=O)c1ccc(O)cc1)C(=O)N[C@H]1C(=O)CO[C@H]1C [CAP1-L-Leu/drawing 70]
IV. CC(C)C[C@H](NC(=O)c1ccc(O)cc1)C(=O)N[C@@H]1COCC1=O [CAP1-L-Leu/drawing 73]
Q) # desc sort on Ki across 4 compounds Note for the reader: the ranking is given by listing the labels in the order requested.
A) I, II, III, IV
(I: 1.55 µM, II: 0.65 µM, III: 0.41 µM, IV: 0.07 µM)

====

molecular target: Murine Cathepsin S (Mus musculus); assay: Ki competitive inhibition, murine cathepsin S; format: biochemical; details: Table 2, Mouse; read-out: Ki (μM) Mouse, Murine Cathepsin S
outcome measure: Ki (µM)

> print(dat)
                                   compound  value.measured
1  CC1OCC(=O)C1NC(=O)C(CC(C)(C)C)NC(=O)c1ccsc1 [CAP11-L-tBu-Ala/drawing 71]           0.048

A. CC[C@@H]1OCC(=O)[C@H]1NC(=O)[C@H](CC(C)(C)C)NC(=O)c1ccoc1 [drawing 79/drawing 78 X = O]
B. C[C@@H]1OCC(=O)[C@H]1NC(=O)[C@H](CC(C)(C)C)NC(=O)c1ccoc1 [CAP8-L-tBu-Ala/drawing 71]
Q) Field: lower Ki | Options: A / B Write down the label of the entry you select.
A) A
(A: 0.039 µM, B: 0.1 µM)

====

Biological target: Mammalian Cathepsin S (Homo sapiens, UniProt P25774)
Sequence (P25774 115-331): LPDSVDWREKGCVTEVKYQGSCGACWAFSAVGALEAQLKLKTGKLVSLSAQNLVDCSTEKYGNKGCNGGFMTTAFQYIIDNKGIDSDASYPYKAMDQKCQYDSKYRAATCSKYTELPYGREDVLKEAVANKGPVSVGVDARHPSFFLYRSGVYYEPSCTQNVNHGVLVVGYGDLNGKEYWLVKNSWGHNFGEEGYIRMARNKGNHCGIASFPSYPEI
Assay: Ki competitive inhibition, mammalian cathepsin S
Format: biochemical
Conditions: Table 2, Human; read-out: Ki (μM) Human, Mammalian Cathepsin S
Protocol: Cathepsin S (Mammalian, murine and rat) Assays were performed in 100 mM sodium phosphate, 100 mM NaCl, pH 6.5 (buffer) in white 384 well plates (Coming Costar). Eight inhibitors were assayed per plate. Inhibitor dilutions were performed on a 96 well V-bottomed polypropylene plate (Corning Costar). […] Data were saved as text files and imported into Excel. The initial rates were determined by linear regression and then fitted to the competitive inhibition equation using SigmaPlot.
outcome measure: Ki (µM)

> print(dat)
                                   compound  outcome.measure  units.symbol  value.measured
1  CC1OCC(=O)C1NC(=O)C(CC(C)(C)C)NC(=O)c1ccsc1 [CAP11-L-tBu-Ala/drawing 71]               Ki            µM           0.095

P. CC[C@@H]1OCC(=O)[C@H]1NC(=O)[C@H](CC(C)(C)C)NC(=O)c1ccoc1 [drawing 79/drawing 78 X = O]
Q. C[C@@H]1OCC(=O)[C@H]1NC(=O)[C@H](CC(C)(C)C)NC(=O)c1ccoc1 [CAP8-L-tBu-Ala/drawing 71]
R. CC[C@@H]1OCC(=O)[C@H]1NC(=O)[C@H](CC(C)(C)C(C)C)NC(=O)c1ccoc1 [CAP8-Hybrid3/drawing 68]
Q) Would you mind ranking these compounds by ascending Ki? # list labels per requested ordering
A) R, P, Q
(R: 0.015 µM, P: 0.053 µM, Q: 0.13 µM)

====

biological target: Mammalian Cathepsin L (Homo sapiens, UniProt P07711); assay: Ki competitive inhibition, cathepsin L; format: biochemical; conditions: Table 1, second line of each CAP-P2 block; read-out: Ki competitive inhibition measurements vs Mammalian Cathepsin L
Sequence (P07711 114-333): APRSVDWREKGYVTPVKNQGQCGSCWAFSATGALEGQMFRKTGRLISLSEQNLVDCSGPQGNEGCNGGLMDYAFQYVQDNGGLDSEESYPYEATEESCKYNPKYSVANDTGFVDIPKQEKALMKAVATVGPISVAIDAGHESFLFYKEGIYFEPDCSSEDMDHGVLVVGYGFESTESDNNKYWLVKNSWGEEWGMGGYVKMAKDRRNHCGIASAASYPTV
outcome measure: Ki (µM)

Here's what some known entries look like.
> print(dat)
                                   compound                             tested.system  units.symbol  value.measured
1  C[C@H]1OCC(=O)[C@H]1NC(=O)[C@H](Cc1ccc(O)cc1)NC(=O)Cc1ccccc1 [CAP2-L-Tyr/drawing 69]  Mammalian Cathepsin L (Homo sapiens, UniProt P07711)            µM            0.22
2  CC(C)CC[C@H](NC(=O)c1ccoc1)C(=O)N[C@@H]1COCC1=O [CAP8-L-hLeu/drawing 73]  Mammalian Cathepsin L (Homo sapiens, UniProt P07711)            µM            61.2
3  CC(C)C[C@H](NC(=O)c1cccs1)C(=O)N[C@@H]1C(=O)CO[C@@H]1C [CAP5-L-Leu/drawing 69]  Mammalian Cathepsin L (Homo sapiens, UniProt P07711)            µM            1.48

a. O=C(N[C@@H](Cc1ccc(O)cc1)C(=O)N[C@H]1COCC1=O)c1ccccc1 [CAP3-L-Tyr/drawing 72]
b. CCCC[C@H](NC(=O)c1ccoc1)C(=O)N[C@@H]1C(=O)CO[C@@H]1C [CAP8-L-Nle/drawing 69]
Q) Kindly identify the item with the lower Ki figure among these two: a and b Your answer should be the label of the entry you select.
A) a
(a: 0.25 µM, b: 54.4 µM)
